target: full-length FLAG-tagged B-Raf(V600E) (Homo sapiens (Human), UniProt P15056, V600E); assay: BRAF V600E enzyme assay (TR-FRET competitive displacement of fluorescent tracer); format: binding; settings: averaged IC50; 60 min at ambient temperature; 11-point dosing, top dose 10 μM
Sequence (P15056 whole entry V600E): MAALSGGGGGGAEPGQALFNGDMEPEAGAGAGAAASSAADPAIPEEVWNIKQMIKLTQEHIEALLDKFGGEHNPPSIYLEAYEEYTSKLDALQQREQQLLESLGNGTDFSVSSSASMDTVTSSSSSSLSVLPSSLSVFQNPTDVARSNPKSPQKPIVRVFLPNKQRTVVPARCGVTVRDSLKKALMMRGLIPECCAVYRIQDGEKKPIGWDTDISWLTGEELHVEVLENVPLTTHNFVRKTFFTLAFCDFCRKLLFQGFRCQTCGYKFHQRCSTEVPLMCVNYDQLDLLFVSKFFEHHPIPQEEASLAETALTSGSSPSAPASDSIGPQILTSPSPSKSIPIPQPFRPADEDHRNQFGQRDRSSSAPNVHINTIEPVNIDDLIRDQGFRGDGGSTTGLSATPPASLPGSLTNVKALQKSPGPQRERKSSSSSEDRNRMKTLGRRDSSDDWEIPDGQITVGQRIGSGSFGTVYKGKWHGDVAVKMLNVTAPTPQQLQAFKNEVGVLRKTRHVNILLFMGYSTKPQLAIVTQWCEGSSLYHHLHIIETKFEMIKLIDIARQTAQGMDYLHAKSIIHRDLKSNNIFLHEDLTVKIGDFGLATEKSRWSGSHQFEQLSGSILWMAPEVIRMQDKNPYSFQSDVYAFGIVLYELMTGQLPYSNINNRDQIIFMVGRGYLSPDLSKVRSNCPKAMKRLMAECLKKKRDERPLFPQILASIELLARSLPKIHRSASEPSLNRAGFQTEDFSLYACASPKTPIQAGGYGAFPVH
Where a name gives a salt, the structure may show the parent alone.
Measured endpoint: log10(IC50) (log10 of the value in nM)
Please note: log10 values; quantity IC50; unit nM.

CCN(C)S(=O)(=O)Nc1ccc(F)c(Nc2ccc3ncn(C)c(=O)c3c2C)c1Cl [Example 54]	2.27
CCCS(=O)(=O)Nc1cc(Cl)cc(Oc2ccc3ncn(C)c(=O)c3c2C)c1F [Example 70]	0.41
Cc1c(Nc2c(F)ccc(NS(=O)(=O)c3cc(F)ccc3F)c2Cl)ccc2ncn(C)c(=O)c12 [Example 25]	-0.47
CCCS(=O)(=O)Nc1cc(F)c(F)c(Nc2ccc3ncn(C)c(=O)c3c2C)c1F [Example 5]	0.80
CCCS(=O)(=O)Nc1ccc(F)c(Nc2ccc3ncn(C)c(=O)c3c2C)c1C#N [Example 28]	0.30

Please fill in: log10(IC50) reported for CCCS(=O)(=O)Nc1cc(F)cc(Nc2ccc3ncn(C)c(=O)c3c2C)c1F [Example 11] = 1.21

Value of measured log10(IC50) for the entry Cc1c(Oc2c(F)ccc(NS(=O)(=O)CCCF)c2Cl)ccc2ncn(C)c(=O)c12 [Example 67] : 0.30

For record Cc1c(Nc2cccc(NS(=O)(=O)CCCF)c2Cl)ccc2ncn(C)c(=O)c12 [Example 4] the listed log10(IC50) is 1.21

Reported log10(IC50) for CCCS(=O)(=O)Nc1ccc(F)c(Nc2ccc3ncn(Cc4ccccc4)c(=O)c3c2C)c1Cl [Example 29] was 2.24

// log10(IC50) value for CCCS(=O)(=O)Nc1cc(F)cc(Oc2ccc3ncn(C)c(=O)c3c2C)c1Cl [Example 74] : 0.55

The compound identified as CCCS(=O)(=O)Nc1cc(F)c(F)c(Oc2ccc3ncn(C)c(=O)c3c2C)c1F [Example 72] registered its log10(IC50) at 0.89

Looking up Cc1c(Oc2cccc(NS(=O)(=O)CCCF)c2F)ccc2ncn(C)c(=O)c12 [Example 80] , I found its log10(IC50) recorded as 1.32

Entry Cc1c(Nc2c(F)c(F)cc(NS(=O)(=O)CCCF)c2F)ccc2ncn(C)c(=O)c12 [Example 6] — recorded log10(IC50) = 0.24

log10(IC50) measured on CCCS(=O)(=O)Nc1ccc(F)c(Nc2ccc3ncn(CC4CC4)c(=O)c3c2C)c1Cl [Example 38] = 1.45

get_value(item= Cc1c(Nc2c(F)c(F)cc(NS(=O)(=O)CCCF)c2Cl)ccc2ncn(C)c(=O)c12 [Example 8] , readout=log10(IC50)) returns 0.16

Lookup result for CCCS(=O)(=O)Nc1cccc(Nc2ccc3ncn(C)c(=O)c3c2C)c1C#N [Example 53] ; measured log10(IC50): 0.97

The compound CCCS(=O)(=O)Nc1ccc(F)c(Nc2ccc3ncn([C@H]4CCOC4)c(=O)c3c2C)c1Cl [Example 35, trifluoroacetate] showed log10(IC50) equal to 1.39
